Hello, the source for this data is the supplement of paper PMC10567573, in case you need it.

B1: C1orf55 (parent)
chain: FTSPDYQQQCHEMAERLEDSVLKG

Variants of: B1
Experiment: protein stability index of a GFP-peptide fusion (GPS, HEK-293T) (PSI 1-6); higher = more stable;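 further: lentivirally expressed fusions sorted by FACS into six bins by GFP to DsRed ratio, PSI derived from sequencing read proportions per bin multiplied by bin number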
Details: c terminus: a fixed tail appended
Form field: protein stability index (one value per entry).
# output: bare number, no unit

See these solved cases before continuing.
M13A; 2.03
A14I; 2.45
F1T; 4.88
Q9C; 1.84
S20E; 2.67

Task item: Which protein stability index is listed for Q8M ?
Reply: 1.59

Task item: Which protein stability index is listed for D5W ?
Reply: 2.62
